- Test system: IGROV1 ovarian
- TEST_METHOD_NOTES: NCI-60 one-dose screen, 48 h (100 = growth as untreated, 0 = no growth, -100 = all killed)
- RUN_PARAMETERS: 10 µM unless noted
The panel holds about 83,000 compounds, 20% with a hit somewhere; the sample as a whole holds those more often.
Please enter MET where growth is greater than or equal to 90%, and NOT MET where it is lower.

1. COc1cc(CC(=O)c2ccc(O)c(OC)c2)ccc1O :: MET
2. C=C1C(=O)O[C@H]2[C@H]1CC/C(C(=O)NCCCCCNC(=O)/C1=C/CC[C@@]3(C)O[C@H]3[C@H]3OC(=O)C(=C)[C@@H]3CC1)=C\CC[C@@]1(C)O[C@@H]21 :: MET
3. Cc1nnc2c(Cc3ccccc3)nc3ccccc3n12 :: MET
4. COc1cccc(/C=N/NC(=O)c2cnn3c2NC(c2ccccc2)C3)c1Oc1ccccc1 (stereo not drawn) :: NOT MET
5. COc1cc2c(=O)n(CCN(C)C)c3c4cc5c(cc4ccc3c2cc1OC)OCO5 :: NOT MET
6. C=C1C(=O)O[C@H]2[C@H]1CC/C(CNC(=O)C(C)c1ccc(CC(C)C)cc1)=C\CC[C@@]1(C)O[C@@H]21 (stereo partly drawn) :: NOT MET
